Recorded values, source PubChem BioAssay (NCATS).

- Test system: C33A
- test_protocol: Primary qHTS to identify gynecologic anti-cancer compounds using libraries of approved drugs and bioactive compounds (AID 1345084); note: nearly all actives have a fitted effect of over 55% in size
- measurement_parameters: Gynecologic cancer cell panel viability, ATPlite luminescence, 48 h; series mostly up to 57.5 µM
Records with an inconclusive call do not appear. Calls of active or inactive are those of the source. Calls come from the whole dose curve; as a rule, active = well fitted cell-killing curve with a large enough effect; inconclusive = small, poorly fitted or top-dose-only effect, or effect the other way; inactive = flat fitted curve, though single readings scatter.
Hi there, use one of these labels in your reply, thanks! t = active, f = inactive

Name the outcome recorded for `CC(C)=C[C@@H]1[C@H](CO[C@@H]2O[C@H](CO)[C@@H](O)[C@H](O)[C@H]2O)C1(C)C` in the assay. f

Name the outcome recorded for `CCOc1ccc(Cc2nc(-c3c(C)nc4ccccn34)cs2)cc1` in the assay. t

Name the outcome recorded for CCCN(CCc1ccsc1)C1CCc2c(O)cccc2C1 (centres undefined) in the assay. f

Name the outcome recorded for CC1CCC/C=C/C(=O)c2c(O)cc(O)cc2CC(=O)O1 (centres undefined) in the assay. t

Name the outcome recorded for `Nc1nccc(-c2c(-c3ccc(F)cc3)ncn2C2CCCCC2)n1` in the assay. f

Name the outcome recorded for `CCCCCCCOc1cc2c(cc1/C(C)=C/c1ccc(C(=O)O)cc1)C(C)(C)CCS2(=O)=O` in the assay. f

Name the outcome recorded for `CC1(C)SCCN(S(=O)(=O)c2ccc(Oc3ccncc3)cc2)[C@H]1C(=O)NO` in the assay. f

Name the outcome recorded for `CC(C)(N)c1ncc(-c2ccc(OC(F)(F)F)cc2)[nH]1` in the assay. f

Name the outcome recorded for CC(C)C(C)C(O)C1CC23CC(=O)C4(O)C(=C2CCC3C1C)C=CC1(O)CC(O)CCC14C (centres undefined) in the assay. f

Name the outcome recorded for `C[C@@]12C(=O)N(c3ccc(C(=O)Nc4cccc5cccnc45)cc3)C(=O)[C@@H]1[C@@H]1C=C[C@H]2C1` in the assay. f

Name the outcome recorded for `COc1ccc(CNCc2cccc3ccccc23)cc1` in the assay. f

Name the outcome recorded for `OC(c1ccc(-c2ccc(CN3CCN(Cc4ccncc4)CC3)cc2)c(F)c1)(C(F)(F)F)C(F)(F)F` in the assay. f

Name the outcome recorded for `CN(C)[C@@H]1CCc2[nH]c3ccc(NC(=O)c4ccc(F)cc4)cc3c2C1` in the assay. f

Name the outcome recorded for `O=c1nc(-c2ccccn2)sc2ccccc12` in the assay. f

Name the outcome recorded for `Fc1ccc(-c2nc(C3CCNCC3)sc2-c2ccnc(NC3CC3)n2)cc1` in the assay. f

Name the outcome recorded for `O=C(Nc1cccnc1)c1cc(-c2ccnc(F)c2)ccc1OCc1ccccc1` in the assay. f

Name the outcome recorded for `Cc1cc(C(=O)Cn2cc(C#N)ccc2=O)c(C)n1Cc1ccccc1` in the assay. f

Name the outcome recorded for `CC(C)(C)c1ccc(C(=O)Nc2cn3cc(-n4ccnc4)ccc3n2)cc1` in the assay. f

Name the outcome recorded for CC(NC(=O)Cc1cc(F)cc(F)c1)C(=O)NC1C(=O)N(C)c2ccccc2-c2ccccc21 (centres undefined) in the assay. f

Name the outcome recorded for `COc1cc2ncnc(Oc3ccc(CC(=O)Nc4cnn(C(C)C)c4)cc3)c2cc1OC` in the assay. f

Name the outcome recorded for `CC(=O)Nc1cccc(-c2csc(Nc3cc(C)ccn3)n2)c1` in the assay. f

Name the outcome recorded for `COC(=O)c1ccc2c(c1)nc(NC(=O)c1ccccc1)n2CCCc1ccccc1` in the assay. f

Name the outcome recorded for CC(C)(CO)c1cc2cc(NC(=O)C3(c4ccc5c(c4)OC(F)(F)O5)CC3)c(F)cc2n1CC(O)CO (centres undefined) in the assay. f

Name the outcome recorded for `COc1ccc(OC)c(-c2ccc(NC(=O)c3ccncc3F)cc2)c1` in the assay. f

Name the outcome recorded for `Cc1cc(-c2nc3cc(F)ccc3s2)ccc1NC(=O)[C@@H](N)CCCCN` in the assay. t

Name the outcome recorded for `CC(=O)NCc1cccc(OC[C@@H](O)CNCCc2ccc(NS(=O)(=O)c3ccccc3)cc2)c1` in the assay. f

Name the outcome recorded for `N#Cc1ccc(-c2ccc(S(=O)(=O)Nc3cccc(N)n3)cc2)cc1` in the assay. f

Name the outcome recorded for `CC1(C)CN(C(=O)c2ccc(-c3cccc4nc(NC(=O)C5CC5)nn34)cc2)C1` in the assay. f

Name the outcome recorded for `Cc1cc(F)ccc1[C@H]1C[C@@H](N2CCN3C(=O)CC[C@H]3C2)CCN1C(=O)N(C)[C@H](C)c1cc(C(F)(F)F)cc(C(F)(F)F)c1` in the assay. f

Name the outcome recorded for `O=C(Nc1ccccc1)c1ccc(Nc2nnc(-c3ccc(O)cc3)c3ccccc23)cc1` in the assay. f

Name the outcome recorded for CC(=O)O[C@@H]1CC2C(C)(C)C(=O)C=C[C@]2(C)C2CC[C@@]3(C)[C@H](c4ccoc4)OC(=O)[C@H]4O[C@]43[C@@]21C (some centres undefined) in the assay. f

Name the outcome recorded for `COc1ccc(C[C@H]2COC(=O)[C@@H]2Cc2ccc(O[C@@H]3O[C@H](CO)[C@@H](O)[C@H](O)[C@H]3O)c(OC)c2)cc1OC` in the assay. f

Name the outcome recorded for `CC(C)c1c(O)ccc2c1CC[C@H]1C(C)(C)CCC[C@]21C` in the assay. f

Name the outcome recorded for `C1=Cc2ccccc2C(=C2CCN(CCCCc3nn[nH]n3)CC2)c2ccccc21` in the assay. f

Name the outcome recorded for C=CCc1ccc(OC(C)Cc2ccc(OC)c(OC)c2)c(OC)c1 (centres undefined) in the assay. f

Name the outcome recorded for `CCCCc1ccc(NS(=O)(=O)c2ccc(F)cc2)cc1` in the assay. f

Name the outcome recorded for `CC(C)NCCCn1c(Sc2cc3c(cc2I)OCO3)nc2c(N)ncnc21` in the assay. t

Name the outcome recorded for C=C1C(=O)OC2CC(C)=C(C(C)CCCOC(C)=O)C(OC(=O)CC(C)CC)C12 (centres undefined) in the assay. f

Name the outcome recorded for `CCC(CC)Nc1nc(C)c(-c2ccc(OC(F)(F)F)cc2OC)nc1OC` in the assay. f
